Each entry below carries its reported Vd.
Experiment: Systemic clearance and pharmacokinetics after i.v. dose in C57BL/6 mice aging 2 months
Format: in vivo, mouse
Conditions: male, C57BL/6, mouse, plasma, iv; i.v. 1.0 mg/kg; read-out: Vd ss

COMPOUND | UNIT | Vd
COCCOCCn1c2ccccc2c2cc(/C=C/c3cc[n+](C)c4ccccc34)ccc21.[I-] [SLM] | L/kg | 2.2
COCCOCCn1c2ccccc2c2cc(/C=C/c3cc[n+](CCO)c4ccccc34)ccc21 [SLOH] | L/kg | 0.83

---

Experiment: Systemic clearance and pharmacokinetics after i.v. dose in C57BL/6 mice aging 2 months
Assay type: in vivo, mouse
Conditions: male, C57BL/6, mouse, plasma, iv; i.v. 0.6 mg/kg
Protocol: Male C57BL/6 and Bile duct-cannulated (BDC) mice (2 months, weighting: 25–30 g) obtained from Charles River, Inc. (Raleigh, NC) were used to study systemic clearance mechanism, in line with in vitro commercial samples from adolescent animals. […] Parameters in animals were determined using non-compartmental analysis. […] Systemic Cl p was calculated as the i.v. dose divided by AUC0−∞ ^iv. […] Mean residence time from t = 0 to infinity (MRT 0−∞) was calculated as AUMC 0−∞ divided by AUC 0−∞. […]

MOLECULE | UNIT | half-life
COCCOCCn1c2ccccc2c2cc(/C=C/c3cc[n+](CCO)c4ccccc34)ccc21 [SLOH] | h | 5.5
COCCOCCn1c2ccccc2c2cc(/C=C/c3cc[n+](C)c4ccccc34)ccc21.[I-] [SLM] | h | 6
